# maps each entry to its binding signal
# measuredTarget: OsWOX13 (Oryza sativa, UniProt Q5QMM3 1-267)
# Sequence: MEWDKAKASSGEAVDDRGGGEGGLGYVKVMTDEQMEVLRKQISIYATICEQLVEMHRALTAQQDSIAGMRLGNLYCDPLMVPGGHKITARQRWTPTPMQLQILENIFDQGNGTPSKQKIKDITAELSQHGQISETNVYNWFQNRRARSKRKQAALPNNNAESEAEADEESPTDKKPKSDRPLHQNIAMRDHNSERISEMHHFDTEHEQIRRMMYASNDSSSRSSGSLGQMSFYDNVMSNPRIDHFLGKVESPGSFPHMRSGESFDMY
# experimentDescription: protein-binding microarray (RPBM); PBS, 2% BSA, 51.3 ng/ul salmon testes DNA, 50 uM zinc acetate, 200 nM TF, 25 C, 1 h; high values mean tight binding
# testSettings: protein: recombinant; tags: N-terminal polyhistidine and DsRed monomer fusion (pET32a); label: CyDye5-dUTP incorporated in the synthesized complementary strand; 3' TTTTT single-stranded linker to array surface; dsDNA, one strand shown
Over roughly 35,000 sequences, “fluorescence intensity (a.u.)” has its median near 10,000; the highest 2% begin near 52,000. The list comes from a sample in which the highest values are over-represented; it also holds close analogues and randomly drawn sequences.

Could you tell me which binding signal is on file for `CGTTTCTTGATTCGATGGTTGATGGATTTTGGTTTGTGGACGGAGTCACCTAGTGCAG` ?
4980 fluorescence intensity (a.u.)

Also need `AAATTTAAATTTGAAGTTGATTTTAAGATATTTTCAACGTCGGAGTCACCTAGTGCAG` , thanks.
21000 fluorescence intensity (a.u.)

Also need `ATGGAAATTGATTAGGAGATTATTGATGCGATAAGTAGTACGGAGTCACCTAGTGCAG` , thanks.
37000 fluorescence intensity (a.u.)

Also need `CTTAATTACTATTCCCTCCGTCATACAATATAAGAGATTTCGGAGTCACCTAGTGCAG` , thanks.
22500 fluorescence intensity (a.u.)

Others:
Could you tell me which binding signal is on file for `TTCAACCATAAATTGAATTGAATAGGACGGATGATGGTTACGGAGTCACCTAGTGCAG` ?
12700 fluorescence intensity (a.u.)

Also need `AAATTACTAATTTACCTATAATTAGTTGGACTCTAGCTCTCGGAGTCACCTAGTGCAG` , thanks.
37600 fluorescence intensity (a.u.)

----------
# measuredTarget: OsWOX13 (Oryza sativa, UniProt Q5QMM3 1-267)
# Sequence: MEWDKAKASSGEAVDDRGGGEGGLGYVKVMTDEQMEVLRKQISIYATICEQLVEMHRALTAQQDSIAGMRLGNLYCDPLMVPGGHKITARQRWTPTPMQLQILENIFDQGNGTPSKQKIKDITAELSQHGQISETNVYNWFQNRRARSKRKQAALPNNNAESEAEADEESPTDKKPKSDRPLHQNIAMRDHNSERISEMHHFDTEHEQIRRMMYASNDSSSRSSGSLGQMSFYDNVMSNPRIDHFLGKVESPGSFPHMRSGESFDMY
# experimentDescription: protein-binding microarray (RPBM); PBS, 2% BSA, 51.3 ng/ul salmon testes DNA, 50 uM zinc acetate, 200 nM TF, 25 C, 1 h; high values mean tight binding
# testSettings: protein: recombinant; tags: N-terminal polyhistidine and DsRed monomer fusion (pET32a); label: CyDye5-dUTP incorporated in the synthesized complementary strand; 3' TTTTT single-stranded linker to array surface; dsDNA, one strand shown
The full ranking holds about 35,000 sequences; the median of “fluorescence intensity (a.u.)” is about 10,000, and the highest 2% start at about 52,000. The list comes from a sample in which the highest values are over-represented; it also holds close analogues and randomly drawn sequences.
assayReadout: binding signal

Checklist item: binding signal tested on OsWOX13 (Oryza sativa, UniProt Q5QMM3 1-267), entry `TGAAGATTGATGAGATGGACGGTACCATTGCCGATGCTGTCGGAGTCACCTAGTGCAG` , value?
56700 fluorescence intensity (a.u.)

Others:
Checklist item: binding signal tested on OsWOX13 (Oryza sativa, UniProt Q5QMM3 1-267), entry `AATAATTGAATATATTTTCATAATAAATGTGTGTTGAGTTCGGAGTCACCTAGTGCAG` , value?
38400 fluorescence intensity (a.u.)

Also need `CTAGAAATTAGGTGATTAATTTATTAAACACAATATTGCCCGGAGTCACCTAGTGCAG` , thanks.
56900 fluorescence intensity (a.u.)

Also need `TTGCTGATTGAAGCTGATACTGTCGTGAAATGAACCATGTCGGAGTCACCTAGTGCAG` , thanks.
38200 fluorescence intensity (a.u.)

Also need `TTTTGATCACACCATGATTGATGCACAAATCCATATGAACCGGAGTCACCTAGTGCAG` , thanks.
36800 fluorescence intensity (a.u.)

Also need `TATAATTGAATAAATTTTCATATTATATTTATCTTGTGTTCGGAGTCACCTAGTGCAG` , thanks.
63100 fluorescence intensity (a.u.)

Also need `AAAATCAAGATTGATGTGGTTTCACCCCAACACAAGAAAACGGAGTCACCTAGTGCAG` , thanks.
8050 fluorescence intensity (a.u.)

Also need `AAATTAAATAACATGTGATTATGGCATACTGTAAGTAGTACGGAGTCACCTAGTGCAG` , thanks.
12000 fluorescence intensity (a.u.)

Also need `TACTAATTTTGAATTTAGAGCTATTAACCAATAAATTGTTCGGAGTCACCTAGTGCAG` , thanks.
12200 fluorescence intensity (a.u.)

Also need `TGAATAATTGACAATTTAACCAGACCATTAATTAATTGTTCGGAGTCACCTAGTGCAG` , thanks.
62400 fluorescence intensity (a.u.)

Also need `AGGAGAAACAATTTGCAATCATCACATTGTTTAAAGAGATCGGAGTCACCTAGTGCAG` , thanks.
5330 fluorescence intensity (a.u.)

Also need `AATAATTGAATATATTTTCATAATAAATTTGTCTTGGGTTCGGAGTCACCTAGTGCAG` , thanks.
44400 fluorescence intensity (a.u.)

Also need `AAAGAGAACACATAATTGATTTGGAGCACCCAAATAATTTCGGAGTCACCTAGTGCAG` , thanks.
15200 fluorescence intensity (a.u.)

Also need `CTTTAAAATTAATTAAATTTGAAAATTAGTAACGAGGGGACGGAGTCACCTAGTGCAG` , thanks.
26700 fluorescence intensity (a.u.)

Also need `AGAATATGATTTTAAAATTAATTTTAGGGGAGGGTTTTACCGGAGTCACCTAGTGCAG` , thanks.
26000 fluorescence intensity (a.u.)

Also need `ACAATTGAAGATAAATGACAAACCAATAAACCATTTGTTTCGGAGTCACCTAGTGCAG` , thanks.
5080 fluorescence intensity (a.u.)

Also need `CAACCAATAAATTAGAACTCCATCTCGATCATGGTGTTATCGGAGTCACCTAGTGCAG` , thanks.
4370 fluorescence intensity (a.u.)

Also need `AAGAATTGATAGATGAAACGTGATTAGATACTAACTATACCGGAGTCACCTAGTGCAG` , thanks.
41200 fluorescence intensity (a.u.)

Also need `TTTAATTGAACTTGAGTGGTCCAGGTATTAAATGTGGGTCCGGAGTCACCTAGTGCAG` , thanks.
52200 fluorescence intensity (a.u.)
